System: PAX3-FOXO1 fusion transcription factor
Assay: RH4 ALK-Luc luciferase reporter assay (PAX3-FOXO1 super enhancer activity)
Assay type: cell-based, human
Conditions: RH4 ALK-Luc reporter; 10 μM
Each entry below carries its reported Avg Absorbance @ 10 μM, ALK-Luc.
// no unit string in output, number only

// worked examples, Avg Absorbance @ 10 μM, ALK-Luc included
> print(dat)
                        sample.smiles                  reported.metric  numeric.readout
1  Cc1cccc(C(=O)NNC(=O)c2cccc(C)c2)c1  Avg Absorbance @ 10 μM, ALK-Luc            112.8
2         CCC(CC)C(=O)NNC(=O)c1ccccn1  Avg Absorbance @ 10 μM, ALK-Luc             89.1

Now, please, on to the next compound.
Memo: O=C(NNC(=O)c1ccccn1)c1ccccn1 , reported Avg Absorbance @ 10 μM, ALK-Luc: 107.1
